Parameter Percent Control: see the listing below.
Tested on: HCK;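 also: KINOMEscan scanMAX binding as percent activity remaining versus control; lower means stronger binding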
Conditions: Compound Concentration (nM):1000
Respond with a number, then the unit of measure.

Examples from the recorded data:
NS(=O)(=O)c1ccc(N/N=C2\C(=O)Nc3ccc(Cl)cc32)cc1 [GW280670X]: 100%
CCS(=O)(=O)c1ccc(OC)c(Nc2ncc(-c3cccc(F)c3)o2)c1 [GW621970X]: 32%
CC(C)COC(=O)c1ccc2c(c1)/C(=C/Nc1ccc(S(N)(=O)=O)cc1)C(=O)N2 [GW416981X]: 100%

## Input Report Percent Control for COc1cccc(-n2ncc3c(N/N=C/c4ccncc4)ncnc32)c1 [GW784752X] please.
## Output 100%

## Input GET /values?readout=Percent Control&item= COc1cccc(-c2c[nH]c3c(N/N=C/c4ccncc4)ncnc23)c1 [GW814408X]
## Output 91%

## Input Return reported Percent Control; argument: COc1cc2ncn(-c3cc(O[C@H](C)c4ccccc4Cl)c(C(N)=O)s3)c2cc1OC [GSK237701A]
## Output 64%

## Input Item Nc1ncnc2occ(-c3ccc(NC(=O)Nc4cc(C(F)(F)F)ccc4F)cc3)c12 [GW770249X] has what recorded Percent Control?
## Output 74%

## Input What measured Percent Control goes with O=C1Nc2ccc(C(=O)c3ccco3)cc2C1=Cc1cc(Cl)c(O)c(Cl)c1 [GW406108X] ?
## Output 98%

## Input Entry under review: Cc1cc(O)cc(C)c1/C=C/c1cncc(C(N)=O)c1 [GW435821X] . Reported Percent Control?
## Output 38%

Source listed as paper PMC7826789.
